Biological target: T1, cynomolgus SIRPα on cells (cynomolgus, UniProt P78324 31-373 (human entry))
T1 construct: also called cyno SIRPα-CHO; Cyno SIRPα-CHO-K1; not shown: Transmembrane and cytoplasmic region of cynomolgus SIRPα
T1 chain: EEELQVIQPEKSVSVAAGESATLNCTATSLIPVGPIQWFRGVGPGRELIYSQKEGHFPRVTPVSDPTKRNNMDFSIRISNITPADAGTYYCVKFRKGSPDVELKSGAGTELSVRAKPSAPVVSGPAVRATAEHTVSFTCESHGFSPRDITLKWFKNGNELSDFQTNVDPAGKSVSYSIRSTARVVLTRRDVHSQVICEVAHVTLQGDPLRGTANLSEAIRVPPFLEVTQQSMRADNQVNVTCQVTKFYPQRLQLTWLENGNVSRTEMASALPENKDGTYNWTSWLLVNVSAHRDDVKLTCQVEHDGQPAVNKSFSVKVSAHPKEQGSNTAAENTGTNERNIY
Assay: cell binding, Cyno SIRPα-CHO-K1 cells, 100 nM antibody
Readout Name: fold increase over background (100 nM) (fold)
Reply numerically in fold, unit not repeated.

Example results:
Binder	fold increase over background (100 nM), fold
SIRPAB-7 (antibody, human IgG1, kappa, V domains shown) VH: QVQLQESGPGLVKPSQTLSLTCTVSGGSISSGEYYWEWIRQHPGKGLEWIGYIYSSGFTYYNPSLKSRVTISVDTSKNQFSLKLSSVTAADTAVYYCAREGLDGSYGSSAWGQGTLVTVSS VL: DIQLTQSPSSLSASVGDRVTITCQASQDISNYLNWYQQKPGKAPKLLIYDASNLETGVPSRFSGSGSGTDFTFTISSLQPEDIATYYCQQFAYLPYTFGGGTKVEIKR	2390
SIRPAB-10 (antibody, human IgG1, kappa, V domains shown) VH: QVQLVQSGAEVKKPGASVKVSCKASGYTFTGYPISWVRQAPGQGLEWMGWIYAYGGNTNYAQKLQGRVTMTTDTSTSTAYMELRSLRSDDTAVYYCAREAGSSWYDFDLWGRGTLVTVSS VL: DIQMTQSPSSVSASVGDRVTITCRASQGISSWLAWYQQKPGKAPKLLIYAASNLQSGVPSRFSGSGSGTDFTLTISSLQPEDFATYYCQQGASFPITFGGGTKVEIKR	1070

Measured fold increase over background (100 nM) of SIRPAB-8 (antibody, human IgG1, kappa, V domains shown) VH: QVQLVQSGAEVKKPGASVKVSCKASGYTFTSYGISWVRQAPGQGLEWMGWISPYNGNTNYAQKLQGRVTMTTDTSTSTAYMELRSLRSDDTAVYYCAREAGSSWYDFDLWGRGTLVTVSS VL: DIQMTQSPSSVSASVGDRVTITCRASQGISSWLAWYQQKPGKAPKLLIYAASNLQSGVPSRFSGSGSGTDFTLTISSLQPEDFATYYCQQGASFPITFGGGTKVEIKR : 1020

# fold increase over background (100 nM) (binder: SIRPAB-9 (antibody, human IgG1, kappa, V domains shown) VH: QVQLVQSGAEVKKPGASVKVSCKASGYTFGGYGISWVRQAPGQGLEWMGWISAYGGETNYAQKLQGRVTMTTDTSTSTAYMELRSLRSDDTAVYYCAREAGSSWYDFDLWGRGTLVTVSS VL: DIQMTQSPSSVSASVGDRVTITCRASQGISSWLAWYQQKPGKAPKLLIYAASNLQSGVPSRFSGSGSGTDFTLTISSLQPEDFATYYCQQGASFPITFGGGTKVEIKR ) is 2300
